FYI, the data here is from patent US7501430B2.

# STUDY_SYSTEM: mutant B-RAF (Homo sapiens, UniProt P15056, V600E)
# Construct: purchased Upstate (Charlottesville, Va.)
# Sequence (P15056 whole entry V600E): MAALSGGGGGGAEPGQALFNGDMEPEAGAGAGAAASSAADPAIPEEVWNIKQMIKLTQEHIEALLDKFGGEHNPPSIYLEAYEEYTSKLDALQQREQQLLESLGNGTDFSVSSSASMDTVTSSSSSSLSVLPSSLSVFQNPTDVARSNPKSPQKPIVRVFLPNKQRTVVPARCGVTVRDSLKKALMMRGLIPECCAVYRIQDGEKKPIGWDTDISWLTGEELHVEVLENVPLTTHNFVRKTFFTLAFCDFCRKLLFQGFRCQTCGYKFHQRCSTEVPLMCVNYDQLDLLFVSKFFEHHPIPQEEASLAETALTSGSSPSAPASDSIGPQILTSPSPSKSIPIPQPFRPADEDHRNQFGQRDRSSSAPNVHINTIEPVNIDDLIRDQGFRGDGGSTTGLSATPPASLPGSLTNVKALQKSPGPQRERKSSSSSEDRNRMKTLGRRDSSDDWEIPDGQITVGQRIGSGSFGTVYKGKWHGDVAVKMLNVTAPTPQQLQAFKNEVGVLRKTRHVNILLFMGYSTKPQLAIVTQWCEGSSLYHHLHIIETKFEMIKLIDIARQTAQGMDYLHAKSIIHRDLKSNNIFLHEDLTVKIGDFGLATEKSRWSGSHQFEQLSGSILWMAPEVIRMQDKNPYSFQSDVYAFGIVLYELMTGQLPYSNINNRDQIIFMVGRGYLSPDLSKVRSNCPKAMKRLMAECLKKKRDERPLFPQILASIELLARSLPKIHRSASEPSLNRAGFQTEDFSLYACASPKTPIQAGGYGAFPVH
# ASSAY: RAF biochemical assay (MEK-1 phosphorylation, anti-phospho MEK1/2 detection)
# CONDITION_SUMMARY: read-out: Mutant B-RAF IC50
METRIC_NAME: pIC50
Quick note: pIC50 values are minus log10 of concentrations in mol/L.

Worked cases, pIC50 given:
| COMPOUND | REPORTED_VALUE |
| --- | --- |
| O=S(=O)(c1ccc(Cl)cc1)N1CCC[C@@H](Nc2nccc(-c3c(-c4ccc(O)c(O)c4)nc4sccn34)n2)C1 | 7.62 |
| O=C(NS(=O)(=O)c1ccc(Cl)cc1)N1CCC(Nc2nccc(-c3c(-c4cccc(O)c4)nc4occn34)n2)CC1 | 5.91 |
| O=S(=O)(c1cc(Cl)cc(Cl)c1)N1CCC(Nc2nccc(-c3c(-c4ccc(F)cc4)nc4occn34)n2)CC1 | 6.01 |
| Cc1cn2c(-c3ccnc(NC4CCN(S(=O)(=O)c5ccc(C(=O)O)cc5)CC4)n3)c(-c3ccc(F)cc3)nc2s1 | 6.49 |
| O=C(Nc1ccc(F)cc1)N1CCC(Nc2nccc(-c3c(-c4ccc(F)cc4)nc4occn34)n2)CC1 | 5.33 |

### Prompt Item Oc1cccc(-c2nc3sccn3c2-c2ccnc(NC3CCN(CC(O)COc4ccc(Cl)cc4)CC3)n2)c1 (stereo not shown) : provide pIC50
### Response 6.37
